Data origin: PubChem BioAssay AID330

- Test system: P388 leukemia ip, CD2F1 mice, survival T/C
- test description: NCI In Vivo Anticancer Drug Screen. Data for tumor model P388 Leukemia (intraperitoneal) in CD2F1 (CDF1) mice
- run parameters: endpoint: median survival time; dose: 100.0 mg/kg/injection; schedule: Q01DX009 (ip); vehicle: saline with Tween-80; higher = longer survival
Inconclusive results and toxic doses are left out.
Form field: T/C (one value per entry).

Reference set, count: 3
molecule: CCCCC(=O)N/N=C/c1ccc([N+](=O)[O-])s1
reported measurement: 99 % of control

molecule: Cn1c([N+](=O)[O-])cnc1/C=C1/Cc2cc(OCCN3CCCCCC3)ccc2C1=O
reported measurement: 109 % of control

molecule: Oc1c(CN2CCOCC2)cc(CN2CCOCC2)cc1CN1CCOCC1
reported measurement: 103 % of control

The measured T/C associated with Nc1nc2c(ncn2C2OC(CO)C(O)C2N)c(=O)[nH]1 (stereo not drawn) reads 106 % of control

The measured T/C associated with O=C1NC(=O)C2CCCCC12 (stereo not drawn) reads 100 % of control

###

- Tested on: P388 leukemia ip, CD2F1 mice, survival T/C
- test description: NCI In Vivo Anticancer Drug Screen. Data for tumor model P388 Leukemia (intraperitoneal) in CD2F1 (CDF1) mice
- run parameters: endpoint: median survival time; dose: 100.0 mg/kg/injection; schedule: Q01DX009 (ip); vehicle: Klucel (hydroxypropylcellulose) (HPC); higher = longer survival
Toxic doses and inconclusive results are not listed.
Form field: T/C (one value per entry).

Reference set, count: 3
compound: O=C1NCCN1C(=O)Nc1ccc(Cl)c(Cl)c1
measurement target: P388 leukemia ip, CD2F1 mice, survival T/C
T/C: 108 % of control
//
compound: O=c1c2ccccc2c(=O)n2c(=O)c3ccccc3c(=O)n12
measurement target: P388 leukemia ip, CD2F1 mice, survival T/C
T/C: 100 % of control
//
compound: NC(=O)C1CCCC12NC(=O)NC2=O (configuration not stated)
measurement target: P388 leukemia ip, CD2F1 mice, survival T/C
T/C: 90 % of control

Entry CCOc1ccc(/C=C2\CCc3ccccc3C2=O)cc1 , P388 leukemia ip, CD2F1 mice, survival T/C data, T/C value: 102 % of control

Entry CCOC(=O)C1CC(c2ccccc2)=NN1c1ccccc1 (configuration not stated) , P388 leukemia ip, CD2F1 mice, survival T/C data, T/C value: 99 % of control

Entry NC(=S)N/N=C/c1nc2ccccn2c1[N+](=O)[O-] , P388 leukemia ip, CD2F1 mice, survival T/C data, T/C value: 86 % of control

Entry CCCCCCN(CCCCCC)CC(O)c1ccc2c3c(cccc13)CC2 (configuration not stated) , P388 leukemia ip, CD2F1 mice, survival T/C data, T/C value: 102 % of control

###

- Test system: P388 leukemia ip, CD2F1 mice, survival T/C
- test description: NCI In Vivo Anticancer Drug Screen. Data for tumor model P388 Leukemia (intraperitoneal) in CD2F1 (CDF1) mice
- run parameters: endpoint: median survival time; dose: 100.0 mg/kg/injection; schedule: Q01DX001 (ip); vehicle: Klucel (hydroxypropylcellulose) (HPC); higher = longer survival
Inconclusive results and toxic doses are left out.
Form field: T/C (one value per entry).

Reference set, count: 10
compound: CNC(=O)OCc1c(Cl)nc2sccn12
measurement target: P388 leukemia ip, CD2F1 mice, survival T/C
T/C: 109 % of control

compound: O=c1oc(-c2cccc(-c3nc4sc5c(c4c(=O)o3)CCCC5)c2)nc2sc3c(c12)CCCC3
measurement target: P388 leukemia ip, CD2F1 mice, survival T/C
T/C: 93 % of control

compound: OC1CC2(CC3(C1)SCCS3)SCCS2 (configuration not stated)
measurement target: P388 leukemia ip, CD2F1 mice, survival T/C
T/C: 102 % of control

compound: [O-]c1nn(-c2ccccc2)n[n+]1-c1ccccc1
measurement target: P388 leukemia ip, CD2F1 mice, survival T/C
T/C: 97 % of control

compound: Cc1ccc(-n2c3nc(=O)n(C)c(=O)c-3nc3ccccc32)cc1C
measurement target: P388 leukemia ip, CD2F1 mice, survival T/C
T/C: 95 % of control

compound: N#Cc1c(-c2ccccc2)nc2sccn12
measurement target: P388 leukemia ip, CD2F1 mice, survival T/C
T/C: 88 % of control

compound: CCC1=C(NCc2ccccc2)COC1=O
measurement target: P388 leukemia ip, CD2F1 mice, survival T/C
T/C: 101 % of control

compound: CC(C)CC(=O)N(CCC#N)c1ncc([N+](=O)[O-])s1
measurement target: P388 leukemia ip, CD2F1 mice, survival T/C
T/C: 110 % of control

compound: Cc1ccc(S(=O)(=O)N/N=C/c2c(Cl)nc3n2CCS3)cc1
measurement target: P388 leukemia ip, CD2F1 mice, survival T/C
T/C: 101 % of control

compound: COCC1(C)CCCC2(C)C3=C(CC=C(OC)C3)CCC12 (configuration not stated)
measurement target: P388 leukemia ip, CD2F1 mice, survival T/C
T/C: 102 % of control

The measured T/C associated with NC(=S)N/N=C/c1c(Br)n(-c2ccccc2)c2ccccc12 reads 94 % of control

The measured T/C associated with Cc1nc2n(c1/C=N/O)CCS2 reads 99 % of control

The measured T/C associated with NS(=O)(=O)c1cc([N+](=O)[O-])c(SSc2sc(S(N)(=O)=O)cc2[N+](=O)[O-])s1 reads 106 % of control

The measured T/C associated with CCn1c(Cl)c(/C=N/NS(=O)(=O)c2ccc(C)cc2)c2cccc(/C=N\NS(=O)(=O)c3ccc(C)cc3)c21 reads 96 % of control

The measured T/C associated with OC(c1ccccc1)(C1CCNCC1)C1CC1 (configuration not stated) reads 105 % of control

The measured T/C associated with Cc1nnc2sc(/C=C/c3ccccc3)nn12 reads 101 % of control

The measured T/C associated with Cc1cc(C(=O)NCCc2ccc(S(=O)(=O)NC(=O)NCC3CC4CCC3C4)cc2)no1 (configuration not stated) reads 97 % of control

The measured T/C associated with CCCCCCCCCCCCCCCC(=O)OCC(COP(=O)(O)OC1CCC2(C)C(=CCC3C2CCC2(C)C(C(C)CCCC(C)C)CCC32)C1)OC(=O)CCCCCCCCCCCCCCC (configuration not stated) reads 97 % of control

The measured T/C associated with COc1ccc2c(c1)[C@@]13CCCC[C@H]1[C@H](N(C)CC3)C21CC1 reads 97 % of control

The measured T/C associated with CSC(=S)n1nc(C)c(N=Nc2ccccc2[N+](=O)[O-])c1C reads 111 % of control

The measured T/C associated with O=[N+]([O-])c1cccc(N/N=C\c2c(Cl)[nH]c3ccccc23)c1 reads 86 % of control

The measured T/C associated with c1cc2ccc3ccc4ccc5ccc6ccc1c1c2c3c4c5c61 reads 96 % of control

###

- Test system: P388 leukemia ip, CD2F1 mice, survival T/C
- test description: NCI In Vivo Anticancer Drug Screen. Data for tumor model P388 Leukemia (intraperitoneal) in CD2F1 (CDF1) mice
- run parameters: endpoint: median survival time; dose: 6.25 mg/kg/injection; schedule: Q01DX009 (ip); vehicle: saline
Toxic doses and inconclusive results are not listed. How the source made its calls: active means survival T/C of 150% or more; inactive means T/C below 125% in these data.
Output constraint: value belongs to yes = active, no = inactive

These recorded examples may help you get a feel for the data.
compound: COc1cc(NS(C)(=O)=O)ccc1Nc1c2ccc(Cl)cc2nc2c(OC)cccc12
classification: yes
//
compound: C=Cc1cc[n+](CC(=O)c2ccccc2)cc1
classification: no
//
compound: Cn1ccn(CCCCCCn2ccn(C)c2=S)c1=S
classification: no
//
compound: CC1(C(=O)O)CCC2(C(=O)O)CCC3(C)C(=CCC4C5(C)CC(O)C(O)C(C)(CO)C5CCC43C)C2C1 (stereo not drawn)
classification: no

Q) // param item: [Cl][Sb]([Cl])([Cl])([c]1ccccc1)[c]1ccccc1 ; yields the recorded call
A) no

Q) // param item: C[N+](c1ccc(Cl)cc1)=S(C)(C)=O ; yields the recorded call
A) no

Q) // param item: C[CH2][Sn][Cl] ; yields the recorded call
A) no

Q) // param item: S=C(S)N1CCCCC1 ; yields the recorded call
A) no

###

- System: P388 leukemia ip, CD2F1 mice, survival T/C
- test description: NCI In Vivo Anticancer Drug Screen. Data for tumor model P388 Leukemia (intraperitoneal) in CD2F1 (CDF1) mice
- run parameters: endpoint: median survival time; dose: 6.25 mg/kg/injection; schedule: Q04DX003 (ip); vehicle: saline
Toxic doses and inconclusive results are not listed. Rule for the calls: active = survival T/C of 150% or more; inactive = T/C below 125% in these data.
Output constraint: value belongs to active, inactive

These recorded examples may help you get a feel for the data.
compound: CCCCOB(CI)OCCCC
classification: inactive

compound: O=C(C=C(C(F)(F)F)C(F)(F)F)c1cccc(S(=O)(=O)F)c1
classification: inactive

compound: COC(=O)/C=C\C=C(\CBr)C(=O)OC
classification: inactive

compound: COc1cccc2c1C(=O)c1c(O)c3c(c(O)c1C2=O)CC(O)(C(=O)CO)CC3OC1CC(N)C(O)C(C)O1 (stereo not given)
classification: active

Q) // param item: CC[CH2][Sn]([F])([F])[CH2]CC ; yields the recorded call
A) inactive
